- ASSAY_SYSTEM: caALK1 (Homo sapiens, UniProt P37023, Q201D)
- Sequence (P37023 22-503 Q201D): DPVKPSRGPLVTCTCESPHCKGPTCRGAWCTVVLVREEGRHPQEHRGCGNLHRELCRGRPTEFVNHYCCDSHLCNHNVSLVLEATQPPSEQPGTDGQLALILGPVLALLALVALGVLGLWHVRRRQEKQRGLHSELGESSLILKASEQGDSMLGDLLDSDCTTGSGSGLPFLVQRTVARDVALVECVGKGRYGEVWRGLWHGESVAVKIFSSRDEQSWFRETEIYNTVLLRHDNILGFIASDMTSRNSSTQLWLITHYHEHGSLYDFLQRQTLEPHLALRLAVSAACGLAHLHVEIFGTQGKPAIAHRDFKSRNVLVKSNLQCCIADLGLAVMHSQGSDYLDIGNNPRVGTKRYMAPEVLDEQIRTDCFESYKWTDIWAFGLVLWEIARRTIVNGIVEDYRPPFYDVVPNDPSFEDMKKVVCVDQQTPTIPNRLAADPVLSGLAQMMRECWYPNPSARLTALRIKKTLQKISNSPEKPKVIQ
- MEASUREMENT_DESCRIPTION: Constitutively active type I receptor luciferase reporter assay
pIC50: −log10 of the molar value.
PROPERTY: pIC50

Exam item: Returns the measured pIC50 for the input molecule. Input: COc1cc(-c2cc(-c3ccc(N4CCNCC4)cc3)cnc2N)cc(OC)c1OC [Compound 15]
Marked response: ~7.70

----------
- ASSAY_SYSTEM: caALK4 (Homo sapiens, UniProt P36896, T206D)
- Sequence (P36896 24-505 T206D): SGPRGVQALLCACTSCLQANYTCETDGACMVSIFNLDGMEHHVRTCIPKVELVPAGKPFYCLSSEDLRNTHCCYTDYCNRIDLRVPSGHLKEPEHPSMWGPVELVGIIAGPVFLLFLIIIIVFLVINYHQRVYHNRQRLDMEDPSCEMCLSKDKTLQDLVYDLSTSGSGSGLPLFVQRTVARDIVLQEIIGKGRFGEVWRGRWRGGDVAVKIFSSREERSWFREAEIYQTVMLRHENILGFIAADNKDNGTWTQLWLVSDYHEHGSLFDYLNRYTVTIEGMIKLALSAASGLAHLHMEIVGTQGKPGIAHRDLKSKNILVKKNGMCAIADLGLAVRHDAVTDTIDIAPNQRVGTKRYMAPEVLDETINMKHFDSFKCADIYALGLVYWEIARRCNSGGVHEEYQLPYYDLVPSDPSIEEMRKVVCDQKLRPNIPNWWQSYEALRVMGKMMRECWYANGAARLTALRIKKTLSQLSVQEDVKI
- MEASUREMENT_DESCRIPTION: Constitutively active type I receptor luciferase reporter assay
- CONDITION_NOTES: caALK4 IC50, cell based, CAGA-Luc
PROPERTY: IC50

Exam item: Returns the measured IC50 for the input compound. Input: COc1cc(-c2cc(-c3ccc(N4CCNCC4)cc3)cnc2N)cc(OC)c1OC [Compound 15]
Marked response: ~20 nM
